- EXPERIMENTAL SYSTEM: human recombinant BACE2 (Homo sapiens (Human), UniProt Q9Y5Z0)
- Sequence (Q9Y5Z0 63-518): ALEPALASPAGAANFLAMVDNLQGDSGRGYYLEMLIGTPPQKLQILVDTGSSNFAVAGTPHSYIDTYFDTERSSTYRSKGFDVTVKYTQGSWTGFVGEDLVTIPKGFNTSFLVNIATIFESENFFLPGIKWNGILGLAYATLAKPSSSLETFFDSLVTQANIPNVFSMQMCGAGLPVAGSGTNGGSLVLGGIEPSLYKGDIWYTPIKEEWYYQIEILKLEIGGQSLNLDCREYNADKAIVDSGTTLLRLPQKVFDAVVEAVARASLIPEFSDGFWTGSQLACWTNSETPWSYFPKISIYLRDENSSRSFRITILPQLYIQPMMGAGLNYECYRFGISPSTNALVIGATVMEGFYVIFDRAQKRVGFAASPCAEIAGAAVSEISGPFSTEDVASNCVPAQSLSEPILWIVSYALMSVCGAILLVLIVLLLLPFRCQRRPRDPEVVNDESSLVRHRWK
- PROTOCOL NOTES: In vitro enzymatic BACE2 FRET assay
- Assay type: biochemical
- CONDITION DESCRIPTION: read-out: IC50 IP (μM) BACE2 enzyme
Listed next: entries and their corresponding IC50.
Your answer should be a number followed by the unit of measure.

MOLECULE	IC50
CC(NC(=O)[C@]12C[C@H]1[C@@](C)(c1cc(NC(=O)c3cnc(OCC(F)(F)F)cn3)ccc1F)N=C(N)S2)C(F)F (stereo partly shown) [Example 1045]	0.288 µM
C[C@]1(c2cc(Nc3nccc4[nH]c(=O)cnc34)cnc2F)N=C(N)S[C@H]2C[C@H]21 [Example 638]	0.0314 µM
Cc1cc(OCc2ncco2)cnc1C(=O)Nc1cc(F)c(F)c([C@@]2(C)N=C(N)S[C@@]3(CF)C[C@H]32)c1 [Example 645]	0.143 µM
COc1cnc2c(Nc3cc(F)c(F)c([C@@]4(C)N=C(N)S[C@@]5(C(F)F)C[C@@H]45)c3)nccc2n1 [Example 895]	0.0254 µM
Cc1noc(COc2cnc3c(Nc4cc(F)c(F)c([C@@]5(C)N=C(N)S[C@@]6(C(F)F)C[C@@H]56)c4)nccc3n2)n1 [Example 887]	0.317 µM
COC[C@]12C[C@H]1[C@@](C)(c1cc(NC(=O)c3ncc(OCC(F)(F)F)cc3C)ccc1F)N=C(N)S2 [Example 681]	0.789 µM

From here, focus on the item given below.
Briefly, IC50 measured for NC1=N[C@](CF)(c2cc(NC(=O)c3ccc(Cl)cn3)ccc2F)[C@H]2C3CSC[C@@]32S1 (stereo partly shown) [Example 962] : 0.0199 µM

* * *

Listed next: entries and their corresponding log10(IC50).
- EXPERIMENTAL SYSTEM: human recombinant BACE2 (Homo sapiens (Human))
- PROTOCOL NOTES: In vitro enzymatic BACE2 FRET assay
- Assay type: biochemical
- CONDITION DESCRIPTION: read-out: IC50 IP (μM) BACE2 enzyme
Please note: log10 values; quantity IC50; unit µM.

Consider the reported log10(IC50) for these molecules:
CHEMICAL SMILES	EXPERIMENTAL SYSTEM	NUMERIC VALUE
CN(C)C(=O)[C@]12C[C@H]1[C@@](C)(c1cc(NC(=O)c3cnc(OCC(F)(F)F)cn3)cc(F)c1F)N=C(N)S2	human recombinant BACE2 (Homo sapiens (Human))	-2.31
Cc1nc(OCC(F)(F)F)cnc1C(=O)Nc1ccc(F)c([C@@]2(C)N=C(N)S[C@@]3(C(F)F)C[C@@H]23)c1	human recombinant BACE2 (Homo sapiens (Human))	-1.31
COC[C@]12C[C@H]1[C@@](C)(c1cc(NC(=O)c3ncc(OCc4ncco4)cc3C)ccc1F)N=C(N)S2	human recombinant BACE2 (Homo sapiens (Human))	-0.68
Cc1nc(OCC(F)(F)F)cnc1C(=O)Nc1cc(F)c(F)c([C@@]2(C)N=C(N)S[C@@]3(CF)C[C@H]32)c1	human recombinant BACE2 (Homo sapiens (Human))	-1.00
COC[C@]12C[C@H]1[C@@](C)(c1cc(Nc3ncc(F)c4cc(OCc5ncco5)cnc34)cc(F)c1F)N=C(N)S2	human recombinant BACE2 (Homo sapiens (Human))	-0.93

Briefly, log10(IC50) measured for C#CCOc1cnc(C(=O)Nc2cnc(F)c([C@@]3(C)N=C(N)S[C@@]4(COC)C[C@H]43)c2)cn1 : -1.71

Briefly, log10(IC50) measured for C[C@]1(c2cc(NC(=O)c3cnc(OCC(F)(F)F)cn3)ccc2F)N=C(N)S[C@@]2(C(=O)NCC(F)(F)F)C[C@H]21 : -1.10

Briefly, log10(IC50) measured for C[C@]1(c2cc(Nc3nccc4nc(OCc5ncccc5F)cnc34)cc(F)c2F)N=C(N)S[C@@]2(C(F)F)C[C@@H]12 : -1.45

Briefly, log10(IC50) measured for C#CCOc1cnc2c(Nc3cc(F)c(F)c([C@@]4(CF)N=C(N)S[C@H]5C[C@H]54)c3)nccc2n1 : -1.35
